- ASSAY OVERVIEW: in vitro
- APPLIED CONDITIONS: cynomolgus monkey, liver microsomes
ENDPOINT LABEL: half-life at 5 µM (min)
Quick note: give the figure in min, leave out the unit.

**Query** Using known records, supply half-life at 5 µM for `CC(C)CC[C@]1(C)CN(C2CCC2)C(=O)C(C2=NS(=O)(=O)c3cc(NS(C)(=O)=O)ccc3N2)=C1O`
**Result** 55

====

The entries below come with measured half-life at 5 µM values attached.
- ASSAY OVERVIEW: in vitro
- APPLIED CONDITIONS: human, liver microsomes

compound=CC[C@@]1(C)CN(Cc2ccc(F)cc2)C(=O)C(C2=NS(=O)(=O)c3cc(NS(C)(=O)=O)ccc3N2)=C1O endpoint_label="half-life at 5 µM" value_reported="> 60 min"
compound=CC(C)=CC[C@H]1CN(Cc2ccc(F)cc2)C(=O)C(C2=NS(=O)(=O)c3cc(NS(C)(=O)=O)ccc3N2)=C1O endpoint_label="half-life at 5 µM" value_reported="6.9 min"
compound=CC(C)CC[C@]1(C)CN(C2CC2)C(=O)C(C2=NS(=O)(=O)c3cc(NS(C)(=O)=O)ccc3N2)=C1O endpoint_label="half-life at 5 µM" value_reported="5.5 min"

**Query** Using known records, supply half-life at 5 µM for `CC(C)CC[C@@]1(C)CN(Cc2ccc(F)cc2)C(=O)C(C2=NS(=O)(=O)c3cc(NS(C)(=O)=O)ccc3N2)=C1O`
**Result** 5.7 min

**Query** Using known records, supply half-life at 5 µM for `CS(=O)(=O)Nc1ccc2c(c1)S(=O)(=O)N=C(C1=C(O)C[C@H](c3ccccc3)N(Cc3ccc(F)cc3)C1=O)N2`
**Result** > 60 min

**Query** Using known records, supply half-life at 5 µM for `CC(C)[C@H]1CC(O)=C(C2=NS(=O)(=O)c3cc(NS(C)(=O)=O)ccc3N2)C(=O)N1Cc1ccc(F)cc1`
**Result** > 60 min

**Query** Using known records, supply half-life at 5 µM for `CC[C@H]1CC(O)=C(C2=Nc3ccc(NS(C)(=O)=O)cc3S(=O)(=O)N2)C(=O)N1Cc1ccc(F)cc1`
**Result** > 60 min
